// provenance: a protein production outcome set (Wang et al. 2014)

- Protocol Notes: label from the status in PepcDB records
Readout: protein production

• MSFASETKKELTNLEVKDCCAKAELSALIRMNGSLSFSNRKVVLDVQTENAAIARRIYTLLKKQYDVSVELLVRKKMRLKKNNVYIVRLIENAKPILEDLKILGDNFVIARNISEDLVKKRCCKRSYMRGAFLAGGSVNNPETSSYHLEIFSLYKEHNDSLCRLMNQFHLNSKTLERKKGYITYLKEAEKITEFLNVIGAHNSLLRFEDVRIVRDMRNSVNRLVNCETANLNKTIGASLRQVENIKLIDERIGLDALPEKLREIAQLRIDYQEVTLKELGEMVSSGKISKSGINHRLRKLDEIAEQLR = not failed
• LKLEVVEDKQYGRLANRIENVVSQERTRKKFESLVSDSPDGIVHLTTNGTILSVNPSMAGRLGADPDTLVGQQLSAVMDSEAANQRLEAGKSAVENGTATRSEDAVGGRHYHNQYIPVDSHR = failed
• MNGFSQLEGLRGHPSVVRVIGHRGARGVMPENTLEGFAFTLAAGVRALEFDVVMTADGVPVVTHNHHLANAMTRDGQGHWLTGAERQVAEMTYAEIRALDVGGLDGRTVYGRRFPDQAFLTGIHVPRLGELLDLCAGYGDQAPYLLLELKSDPALMHDHAARAEMVAAVLADVRRYRMEPRTVMHSFDWALLGECRRQAPDLPTSYLSQLPENADDPGEDSAKPVGPDYDRMTESLPQAVASAGGQLWCPYFLDVTPELVAEAHDLGLIVLTWTVNEPEDIRRMATTGVDGIVTDYPGRTQRILIDMGLSWT = not failed
• MAPLPLAVIVYEPGDVLEEILAAARDRLVGLPDVRIAGLVPRLGPRHSNGRASFWLDDIVRGDSIALSQDLGPGSTSCILNADGLATARMRLAEAIAVRPDLVLFGRFAKEEIAGRGIREEIGLALAQDVPALVAVERAMLPGWIAFAAEGWTMLPADADAVVAWFVALAAERQSADTLEHHHHHH = failed

----------
- Protocol Notes: label from the status in PepcDB records
Readout: protein production

# annotated cases, reported protein production shown
• MFSRVPQPLAFAEALLAQFGALSRETDITALLGGFARAVGELSGCELSQLYLLDQTHTALTLNAECRDGLLQALEPSSLPADYTGEQLLQFALCQNRVVSLVDLPSRLHETGFLPAGEQPWLSLLCVPLVSPEKTVEGMVVCATRRPLDLQGFAHPLGQLGSFVLAQLHLLQRLSQPSGE = not failed
• MATFEEVSVLGFEEFDKAVKEHESKTIFAYFSGSKDTEGKSWCPDCVEAEPVIREGLKHVTEDCVFIYCQVGDKPYWKDPNNDFRQKLKITAVPTLLKYGTPQKLVESECCQSSLVEMIFSED = not failed
• MNIDAVVEFTKKHLKDEKTGHDFYHGQRVANLASKMYLEDHPDAHADSRMVAIIKSGGYLHDTIDEKVCDNPDKVIAEIKELLPEVGFTDLEVWDILFTIQHMSFSANIEHHYHLPLSGQYVQDADRLESLGAMGIARAFTYGGKHGNKIYDPEIKPEKLVSHDQYRNHVETTINHFYEKLFHLADTMNTPAMKKEANRRTEYMHNFVQEFMNEWNVLEHHHHHH = not failed
• MTTPNFELYGYFRSSCSGRLRIAFHLKSIPYTRHPVNLLKGEQHSDTYKSLNPTNTVPLLVVSNINNTVSPSSASFSIGQSLAALEYLEEALPTNARPLLPPISNPVARAHVRTICNIIACDVQPVTNLKIQKKVKALDGDPTVWSRDLATQGFGAVEKLLELSAGRFCVGDEITLADVCLVPAVWAAERVGMDLARFPITKRVFEEMLKEEAVQKAHWQKQEDTPEDLRA = not failed
• KSPGWMKHLDQEQAVHSESETYGISSWVYSARLPFHPQRFQHFLAHPWTNGTLLRCKGYIWNAKCYQDIGMLVQTGGQFEWEIVGRWWNFINQSDWPQDHYRRDSIFEKWDERTGDCRQEIVFIGQNIDWNTLKHQLDDCLLTLQEIEDGPEAWLNY = failed

Asked: Consider the sequence shown here: `MNIQAIDTRHGTANQHSFSNGNCLPYTGVPFGMNFYAPQTTDQKGSWWFHPEDRTFQGYRVTHQPSPWMGDFSHLLMTPVSGSLSELSLFHAQSSYRPEESLFSPVEINLTQLRYQITSQLIPSMYGGILTIDYQQKDNHLLLTLPGRYQVKQLDDHQVAVKVINYSGCEDPDFSFYFVLHFEQPLTKWFAPSSGLEHHHHHH` What is its recorded protein production?
Given back: failed

Asked: Consider the sequence shown here: `MAANNSIEWRAVCEKFRLAQELSEIESKKDPENNPFRSKYKARDLLKEIHCSLKKIEIEEQGEAGDEADCESSQTADGEPEDGFEKTFTGDSAAGLRAARLAVLQYHLGVNHIETEELSAGELHLMVCMKLIDKCTTTRENVSLFIHVRNQLGILWAGRDEIEKAQGFLEIAETMYLVYMKEDGQPPLDLQDFFVPEGESQSFTGVLQLRSAVLRGESRSQERCRNRARAEYGDGLPAPSEDQQNSIHSGLLQLKW` What is its recorded protein production?
Given back: failed

Asked: Consider the sequence shown here: `MGHHHHHHSHMSYKPNLAAHMPAAALNAAGSVHSPSTSMATSSQYRQLLSDYGPPSLGYTQGTGNSQVPQSKYAELLAIIEELGKEIRPTYAGSKSAMERLKRGIIHARGLVRECLAETERNARS` What is its recorded protein production?
Given back: failed

----------
- Protocol Notes: label from the status in PepcDB records
Readout: protein production

- MVDDNTDQSLSFGRLLFGAGLALQASEDFREMDETVEYAESAGVPVPDVLAPLASGMMLVGGIGVALWRFPRIATGAVVTFLAVVTPTMHDFWNAEPGDRSGERLAFFGNLAMLGAALAYLRKAYR: failed
- SQEANYGALLRELCLTQFQVDMEAVGETLWCDWGRTIRSYRELADCTWHMAEKLGCFWPNAEVDRFFLAVHGRYFRSCPISGRAVRDPPGSILYPFIVVPITVTLLVTALVVWQSKRTEGIV: failed

----------
- Protocol Notes: label from the status in PepcDB records
Readout: protein production

# annotated cases, reported protein production shown
* MTMETVESQHDGSITASLTESKSAHVQTQTGQNSIPALAQVAAIAETDESAESGGVIDSHKRREILSRRPSYRKILNELSSDVPGVPKIEEERSEEEGTPPSIATMAVPTSIYQTSTGQYIAIAQGGTIQISNPGSDGVQGLQALTMTNSGAPPPGATIVQYAAQSADGTQQFFVPGSQVVVQAATGDMPTYQIRAPTAALPQGVVMAASPGSLHSPQQLAEEATRKRELRLMKNREAAKECRRRKKE | not failed
* MKVPKYQLIQNDLRQQIVSGKFENGDKFYTESELTKLFNVSSITVIRAVNELVKDGYLVRQQGKGTFVSRSRKGRLVEFSDIEIFPMDKDKVTVLSCEKGNKPDILEKLNLDKNEFYYKIVRVRAAEDTPYIFHNSYIPQRYIQNPDAPLEHYQSIYQRFKLDYNIHMSEEPFVETNEIVSPCPKEVATHLKLKATEPAVLQNKTTTNSTSGEVMEYTETYKHWKYYKFEITANHR | not failed
* MEVKKELNAQSGKKSLMTIENRKRLLLTGVSEVVNFNDEQIVLNTNLGSLIIKGRELKMNKLDVQNGDIAITGTINAVYSGNESSNKKDSIISRLFKLEHHHHHH | failed
* MLRGCGKLKKNLPCSVHTETPIVLKTTARFLLGLSLVLLSSSVATAQVVLPRTLELNAKEMEQNGFVVAQEALQLAQFQQFEDALVRAKLAVQLAPRAHEIWALLGGLYLTVNQPKDAVPALEQSLKLNDKNPGAYFNLGSAHFRLGRYDAAARAIEQGLALKPNATEEWFNLGNAYLKLGQKDRAIEQYRRSLRLDRRFWPAYTNIGLVLYEQGHIRQAVKNWEQAADIDPKASEPKLALATALLQLGNEARALQLAEEALRLDSRYGTVEFQRENLWGDRLVADTQILLAKPPLRALMSQLQPEQSALPQP | failed
* MLSRIDLYIKHRDIFLKHLELLHKLIEKVEDSSLNESELLNARLVDDMFPFNVQAKIATNFALRACCPLSGKEYKELEGDIDSFCGLKTYVVTAIDYINKLSEPTLEQLNLNVQDTAGFKEISMPASEYMSSFVLPNFFFHISMVYAIAKNNGVSVTKGDFDGIHQYPKGFSWEA | not failed
* MNAIILAAGFGSRLMPLTKDQPKCMVEYKNKKIIDYEIEALKSAGINEIAVVGGYLNDVLKNYLNKYDIEHFFINSKYDKTNMVHTFFCAKDFMLKCIEEKQDLIISYADIVYFQDCVQKLINAKEELAIVVDKSWCKLWSKRFANPLEDAETLKMTNGYIIELGKKANAYDEIEAQYIGLFKFSYQFLSEVIAFYEMLDRDILYDNKNFENMYMTSFLQALIEKYNNAKAVEIDGNWCEIDFMSDLEVQIEKLEHHHHHH | failed

// next entry
Asked: Consider the sequence shown here: `MEIFEDVVRCGGFRAAALGRGVSSSAISQSISVLEEALGIRLLNRTTRSVAPTEAGEQLLERLRPALYEIRTAVDDLNQLRERPSGTVRINAPGPAADHVLCPLTFEFMKIYPDVNVEIVSDAAIIDIVEQGFDAGVRFGNQLAQDMIAMPLGPALRYAIVASPDYLRKRGRPHSPRDLLQHDCIRRRFPGGTMVTWKFARDGDEVEITPKGRLTLSSAHQELQAALAGSGIAHLFEDYVRDDVEQGRLVELLCDWKQKLPSWYLYYPSRRHTSAAMRAFLEYIRNQRQHPDRR` What is its recorded protein production?
Given back: failed
